Reported Ratios of EC50 values: MC1/4 values follow for various binders
target_of_assay: melanocortin-1 receptor (human, UniProt Q01726 1-317)
Sequence (Q01726 whole entry): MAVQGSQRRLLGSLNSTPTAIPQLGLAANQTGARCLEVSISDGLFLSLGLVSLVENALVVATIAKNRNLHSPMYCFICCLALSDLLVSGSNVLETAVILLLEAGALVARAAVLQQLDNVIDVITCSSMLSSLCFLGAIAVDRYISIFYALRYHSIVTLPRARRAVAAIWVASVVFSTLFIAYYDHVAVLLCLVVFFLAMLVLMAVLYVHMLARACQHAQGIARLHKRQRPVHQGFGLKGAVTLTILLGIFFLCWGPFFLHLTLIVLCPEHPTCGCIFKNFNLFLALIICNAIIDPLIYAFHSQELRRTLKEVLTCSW
assay_explanation: cell-based or functional assay
Bridge positions count the residues as written; N and C are the ends. Square brackets hold non-standard residues; d marks the D form. Pen = CC(C)(S)[C@H](N)C(=O)O; hCys = N[C@@H](CCS)C(=O)O
result_type: Ratios of EC50 values: MC1/4

binder: Ac-R[hCys][dA][dF]RW[Pen]-NH2 (disulfide 2-7; SMILES CC(=O)N[C@@H](CCCNC(=N)N)C(=O)N[C@H]1CCSSC(C)(C)[C@@H](C(N)=O)NC(=O)[C@H](Cc2c[nH]c3ccccc23)NC(=O)[C@H](CCCNC(=N)N)NC(=O)[C@@H](Cc2ccccc2)NC(=O)[C@@H](C)NC1=O) [Compound 17: Ac-Arg-cyclo[hCys-D-Ala-D-Phe-Arg-Trp-Pen]-NH2]
result_type: Ratios of EC50 values: MC1/4
measurement: 15

binder: Ac-R[hCys][dA][dF]RWC-NH2 (disulfide 2-7; SMILES CC(=O)N[C@@H](CCCNC(=N)N)C(=O)N[C@H]1CCSSC[C@@H](C(N)=O)NC(=O)[C@H](Cc2c[nH]c3ccccc23)NC(=O)[C@H](CCCNC(=N)N)NC(=O)[C@@H](Cc2ccccc2)NC(=O)[C@@H](C)NC1=O) [Compound 16: Ac-Arg-cyclo[hCys-D-Ala-D-Phe-Arg-Trp-Cys]-NH2]
result_type: Ratios of EC50 values: MC1/4
measurement: 120

binder: Ac-RC[dA]N[dF]RWC-NH2 (disulfide 2-8; SMILES CC(=O)N[C@@H](CCCNC(=N)N)C(=O)N[C@H]1CSSC[C@@H](C(N)=O)NC(=O)[C@H](Cc2c[nH]c3ccccc23)NC(=O)[C@H](CCCNC(=N)N)NC(=O)[C@@H](Cc2ccccc2)NC(=O)[C@H](CC(N)=O)NC(=O)[C@@H](C)NC1=O) [Compound 9: Ac-Arg-cyclo[Cys-D-Ala-Asn-D-Phe-Arg-Trp-Cys]-NH2]
result_type: Ratios of EC50 values: MC1/4
measurement: 90
